# System: 134 cancer cell lines
# method-description: Cell viability assay (ATPlite, 72 hours), IC50 on cancer cell line panel
# condition-description: Homo sapiens, MKN-45, read-out: IC50 in cell proliferation assay
measurement-type: IC50

1. CC#CC(=O)N1CCC[C@H]1c1nc(-c2ccc(C(=O)Nc3ccccn3)cc2)c2c(N)nccn12 = > 31.6 µM

For the compound `C=CC(=O)N1CCC([C@@H]2CCNc3c(C(N)=O)c(-c4ccc(Oc5ccccc5)cc4)nn32)CC1` , what IC50 is on record?
> 31.6 µM

----------
Here the recorded inhibition at 1 µM is given for each entry.
# test-target: panel of 255 wild-type kinases (Homo sapiens)
# Sequence (P31751 whole entry): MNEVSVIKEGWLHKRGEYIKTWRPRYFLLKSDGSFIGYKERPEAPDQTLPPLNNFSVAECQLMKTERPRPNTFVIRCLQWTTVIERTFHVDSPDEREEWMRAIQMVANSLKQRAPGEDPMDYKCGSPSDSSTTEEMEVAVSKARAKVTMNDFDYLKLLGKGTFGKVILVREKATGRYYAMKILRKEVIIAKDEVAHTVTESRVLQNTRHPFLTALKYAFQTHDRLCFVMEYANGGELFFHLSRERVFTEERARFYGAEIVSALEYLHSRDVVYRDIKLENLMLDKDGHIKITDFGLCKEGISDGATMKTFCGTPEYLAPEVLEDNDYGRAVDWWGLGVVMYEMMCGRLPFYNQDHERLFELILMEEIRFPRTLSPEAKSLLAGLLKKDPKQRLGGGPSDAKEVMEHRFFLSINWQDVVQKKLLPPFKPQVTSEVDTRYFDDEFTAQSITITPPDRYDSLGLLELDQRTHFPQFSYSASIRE
# method-description: Kinase panel profiling at 1 µmol/L (MSA or IMAP), percentage inhibition
# Format: biochemical
# condition-description: AKT2 kinase assay; 1 µmol/L single concentration; read-out: %-inhibition AKT2
Quick note: give the figure in %, leave out the unit.

Examples with their reported inhibition at 1 µM follow.
1) COc1ccc(CN2C3CC2CN(c2ccc(-c4cc(OCC(C)(C)O)cn5ncc(C#N)c45)cn2)C3)cn1 = -1.76
2) C[C@H]1Oc2cc(cnc2N)-c2c(nn(C)c2C#N)CN(C)C(=O)c2ccc(F)cc21 = -2.31

Find the recorded inhibition at 1 µM belonging to `Cn1cnc2c(F)c(Nc3ccc(Br)cc3Cl)c(C(=O)NOCCO)cc21` and report it.
0.316

Using the record for `FC(F)(F)c1ccc(CNc2ccc(Cc3c[nH]c4ncc(Cl)cc34)cn2)cn1` , report its inhibition at 1 µM.
-6

Reference for the values: paper PMC9516332
